# TARGET_SYSTEM: MAT2A homodimer (Homo sapiens)
# Construct: inferred from Ni sepharose purification and imidazole elution
# EXPERIMENT_SUMMARY: Biochemical assay: inhibition of MAT2A (phosphate release, PiColorLock Gold)
# CONDITION_LABEL: MAT2A IC50 score; read-out: Enzyme Inhibition (Example 275)
MEASUREMENT_KIND: IC50

Below are worked cases with known answers.
{"MOLECULE": "CCOc1cnc2cn(-c3ccc4nn(C)cc4c3)c(=O)c(-c3ccc(OC(F)F)cc3)c2n1", "IC50": "< 100 nM"}
{"MOLECULE": "CCOc1ccc2cn(-c3ccc4ncn(C)c4c3)c(=O)c(-c3ccc(OC(F)F)nc3)c2n1", "IC50": "< 100 nM"}

Ask | What value of IC50 has been reported for the following molecule? CCOc1ccc2cn(-c3ccc4ncn(C)c4c3)c(=O)c(-c3ccc(C)nc3)c2n1
Reply | < 100 nM

Ask | What value of IC50 has been reported for the following molecule? O=C1N(c2ccc3nc[nH]c3c2)Cc2cnc(NCC3CC3)nc2C12CCN(Cc1cc[nH]n1)C2 (centres unmarked)
Reply | 100 to 1000 nM

Ask | What value of IC50 has been reported for the following molecule? CCOc1ccc2cn(-c3ccc(OC)cc3)c(=O)c(-c3ccc(OC(F)F)cc3)c2n1
Reply | < 100 nM

Ask | What value of IC50 has been reported for the following molecule? O=c1c(-c2ccc(OC(F)F)cc2)c2nc(NCC(F)(F)F)ncc2cn1-c1ccc2ncsc2c1
Reply | < 100 nM

Ask | What value of IC50 has been reported for the following molecule? Cn1cc2cc(-n3cc4ncc(OCC(F)F)nc4c(-c4ccc(Cl)cc4)c3=O)ccc2n1
Reply | < 100 nM

Ask | What value of IC50 has been reported for the following molecule? O=C1N(c2cnoc2)Cc2cnc(NCC3CC3)nc2C12CCN(Cc1cscn1)C2 (centres unmarked)
Reply | 1000 to 10000 nM

---

Here the recorded pIC50 is given for each entry.
# TARGET_SYSTEM: MAT2A homodimer (Homo sapiens, UniProt P31153)
# Construct: inferred from Ni sepharose purification and imidazole elution
# Sequence (P31153 whole entry): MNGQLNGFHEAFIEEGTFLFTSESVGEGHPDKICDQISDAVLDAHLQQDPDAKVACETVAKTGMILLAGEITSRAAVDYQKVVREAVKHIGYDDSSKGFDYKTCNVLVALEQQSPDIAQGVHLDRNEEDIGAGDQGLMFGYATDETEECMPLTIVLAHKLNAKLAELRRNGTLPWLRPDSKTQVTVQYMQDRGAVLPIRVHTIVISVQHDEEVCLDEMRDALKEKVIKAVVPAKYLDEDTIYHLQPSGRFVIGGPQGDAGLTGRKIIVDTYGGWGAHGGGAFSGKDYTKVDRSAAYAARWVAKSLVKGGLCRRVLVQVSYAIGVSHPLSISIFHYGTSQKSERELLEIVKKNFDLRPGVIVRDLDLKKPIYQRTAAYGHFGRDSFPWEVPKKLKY
# EXPERIMENT_SUMMARY: Biochemical assay: inhibition of MAT2A (phosphate release, PiColorLock Gold)
# CONDITION_LABEL: MAT2A IC50 score; read-out: Enzyme Inhibition (Example 275)
# Method: Mat2A protein was expressed by recombinant baculovirus in SF9 infected cells using the Bac to Bac system cloned into the pFASTBAC1 vector (Invitrogen, Carlsbad, Calif.). Recombinant MAT2A was isolated from the cell lysate of 150 g of infected cells using HP Ni sepharose column chromatography. Recombinant MAT2A homodimer was eluted with 250 and 500 mM imidazole, and fractions containing MAT2A were identified by sodium dodecyl sulfate polyacrylamide gel electrophoresis and pooled. […]
pIC50: −log10 of the molar value.

Below are worked cases with known answers.
{"MOLECULE": "Cn1cnc2ccc(-n3cc4ccc(NCC(F)(F)F)nc4c(-c4ccc(OC(F)F)cc4)c3=O)cc21", "TARGET_SYSTEM": "MAT2A homodimer (Homo sapiens, UniProt P31153)", "pIC50": "> 7.00"}
{"MOLECULE": "CCOc1ncc2cn(-c3ccc4nn(C)cc4c3)c(=O)c(-c3ccc(Cl)cc3)c2n1", "TARGET_SYSTEM": "MAT2A homodimer (Homo sapiens, UniProt P31153)", "pIC50": "> 7.00"}
{"MOLECULE": "CCNc1ncc2c(n1)C1(CCN(Cc3cc[nH]n3)C1)C(=O)N(c1ccc(OC)cc1)C2 (stereo not shown)", "TARGET_SYSTEM": "MAT2A homodimer (Homo sapiens, UniProt P31153)", "pIC50": "5.00 to 6.00"}

Ask | Which measured pIC50 belongs to O=C1N(c2cnoc2)Cc2cnc(NCC3CC3)nc2C12CCN(Cc1ccccc1F)C2 (stereo not shown) , tested on MAT2A homodimer (Homo sapiens, UniProt P31153)?
Reply | 6.00 to 7.00
